Data origin, for the record: patent US10869933B2

# assay system: recombinant human H1 histamine receptor (Homo sapiens)
# experiment description: Histamine H1 receptor radioligand binding
# condition label: [3H]-Pyrilamine 1.2 nM, human rCHO cell membranes
observation type: Ki (nM)
Only the number, expressed in nM, is required.

* COCCOCCOCCOCCOCCOCCOCCOCCOCCOCc1ccc2c(c1)Sc1ccccc1N2CC(C)N(C)C (stereo not drawn) [mPEG9-O-Promethazine, mPEG9-O-promethazine] | 45.1
* COCCOCCOCCOCc1ccc2c(c1)Sc1ccccc1N2CC(C)N(C)C (stereo not drawn) [mPEG3-O-Promethazine, mPEG3-O-promethazine] | 7.62

// query Any idea what Ki was measured for COCCOCCOCCN(C)C(C)CN1c2ccccc2Sc2ccccc21 (stereo not drawn) [mPEG3-N-Promethazine, mPEG3-N-promethazine] ?
// result 2.28

====

# assay system: recombinant human H1 histamine receptor (Homo sapiens, UniProt P35367)
# Construct: expressed in transfected cells; host or cells: CHO cells (membranes)
# Sequence (P35367 whole entry): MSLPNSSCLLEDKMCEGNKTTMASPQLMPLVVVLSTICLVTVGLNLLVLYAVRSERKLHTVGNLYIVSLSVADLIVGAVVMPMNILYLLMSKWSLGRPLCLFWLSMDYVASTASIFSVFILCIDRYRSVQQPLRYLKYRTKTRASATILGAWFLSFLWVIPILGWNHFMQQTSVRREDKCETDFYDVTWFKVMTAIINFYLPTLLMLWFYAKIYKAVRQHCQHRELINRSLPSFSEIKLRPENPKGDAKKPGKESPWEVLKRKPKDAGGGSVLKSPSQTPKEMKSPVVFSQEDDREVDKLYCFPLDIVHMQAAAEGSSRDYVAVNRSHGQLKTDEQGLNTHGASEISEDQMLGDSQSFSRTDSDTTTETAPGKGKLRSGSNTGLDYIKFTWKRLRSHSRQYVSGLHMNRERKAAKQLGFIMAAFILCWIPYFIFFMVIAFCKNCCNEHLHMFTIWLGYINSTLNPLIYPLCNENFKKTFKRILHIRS
# experiment description: Histamine H1 receptor radioligand binding
# condition label: [3H]-Pyrilamine 1.2 nM, human rCHO cell membranes
The compounds listed here are annotated with their Ki.
The reply should contain only the number, in nM.

- COCCOCCOCCOCCOCCOCCN(C)C(C)CN1c2ccccc2Sc2ccccc21 (stereo not drawn): 13.2

// query Which Ki is reported for this compound? COCCOCCOCCOCCOCCOCCOCCOCc1ccc2c(c1)Sc1ccccc1N2CC(C)N(C)C (stereo not drawn)
// result 33.2

// query Which Ki reading was recorded for the compound COCCOCCOCCOCCN(C)C(C)CN1c2ccccc2Sc2ccccc21 (stereo not drawn) ?
// result 1.95

// query Query: Ki; subject: COCCOCCOCCOCCOCCN(C)C(C)CN1c2ccccc2Sc2ccccc21 (stereo not drawn)
// result 8.53

// query Fill blank: measured Ki of the compound COCCOCCOCCOCCOCCOCCOCCN(C)C(C)CN1c2ccccc2Sc2ccccc21 (stereo not drawn) is ____.
// result 16.9

// query Fill in the blank: the reported Ki of COCCOCCOCCOCCOCCOCc1ccc2c(c1)Sc1ccccc1N2CC(C)N(C)C (stereo not drawn) is ____.
// result 7.16

====

# experiment description: pKa determination (Sirius GLpKa)
# Type: physicochemical
# condition label: aqueous solution; read-out: pKa
observation type: pKa
// return just the number, without any unit appended

- COCCOCCOCCOCCN(C)C(C)CN1c2ccccc2Sc2ccccc21 (stereo not drawn) [mPEG4-N-Promethazine, mPEG4-N-promethazine]: 8.45

// query Find the recorded pKa belonging to COCCOCCOCCOCCOCCOCCN(C)C(C)CN1c2ccccc2Sc2ccccc21 (stereo not drawn) [mPEG6-N-Promethazine, mPEG6-N-promethazine] and report it.
// result 8.53

// query Query (molecule): COCCOCCOCCOCCOCCN(C)C(C)CN1c2ccccc2Sc2ccccc21 (stereo not drawn) [mPEG5-N-Promethazine, mPEG5-N-promethazine] ; field requested: pKa
// result 8.67

// query So what does the record say about pKa for COCCOCCOCCN(C)C(C)CN1c2ccccc2Sc2ccccc21 (stereo not drawn) [mPEG3-N-Promethazine, mPEG3-N-promethazine] ?
// result 8.4

// query // returns reported pKa for input CC(CN1c2ccccc2Sc2ccccc21)N(C)C (stereo not drawn) [Promethazine, reference compound]
// result 8.99

// query Recorded pKa of COCCOCCOCCOCCOCCOCCOCCN(C)C(C)CN1c2ccccc2Sc2ccccc21 (stereo not drawn) [mPEG7-N-Promethazine, mPEG7-N-promethazine] , please.
// result 8.49
